Values from paper doi:10.1101/2024.12.30.630826

# assayedTarget: IGFBP3 (insulin-like growth factor-binding protein 3) (UniProt P17936 28-291)
# Sequence (P17936 28-291): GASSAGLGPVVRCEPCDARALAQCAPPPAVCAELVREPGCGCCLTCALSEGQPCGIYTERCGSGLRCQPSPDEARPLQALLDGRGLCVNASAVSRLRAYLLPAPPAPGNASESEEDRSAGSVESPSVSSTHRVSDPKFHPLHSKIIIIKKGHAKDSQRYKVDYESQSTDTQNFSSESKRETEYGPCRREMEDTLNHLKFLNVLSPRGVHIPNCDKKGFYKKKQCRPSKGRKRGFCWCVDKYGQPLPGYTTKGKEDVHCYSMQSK
# experimentSummary: SPR
propertyLabel: Kd (nM)

{"binder": "RGen-aptamer-9 (structured_RNA) RNA: UCCAGCACUCCACGCAUAACGAAGGGGGUUUGUUUGUUGGGGGGGGGGGAGGGGGAGUUAUGCGUGCUACCGUGAA", "propertyLabel": "Kd", "experimentalResult": 6.06}
{"binder": "SELEX-derived wild-type aptamer (structured_RNA) RNA: UCCAGCACUCCACGCAUAACGGCGGUGGGUGGGUUGUUGUGGGAGGGGGAGGGGGAGUUAUGCGUGCUACCGUGAA", "propertyLabel": "Kd", "experimentalResult": 11.6}
